apparent Kd by entry:
- Tested on: MS2 coat protein
- runDescription: apparent Kd, MS2 coat protein; higher = weaker binding; RNA-MaP array; FMN 200 µM where present
- measurementSetup: ligand present: flavin mononucleotide; designed as: OFF switch for flavin mononucleotide
metricName: apparent Kd (nM)

GCCGCCCGAUCUGGCUUUUGGGCUAGAAGGGCAUAUGUGGUUCAGGACAUGAGGAUCACCCAUGUGCAGGAUAUAGCCCACCGC = 53
GUAGAGUAGUGAGGAUAUACGAGUACGAUAGUACGGCGAUCCAUUAAUACAUGAGGAUCACCCAUGUAGAAGGCACUUCUCUAC = 84
AAUGUUGUUGUGAGGAUAUCGUAGUUAUUUUGAAACGAGAAGGCACAUGAGGAUCACCCAUGUUUGUUGAUGGU = 47.9
CAUUUGUGAGGAUAUCAGGUGUGCUAGCGUACUGGUACAUCUGAGAAGGCACAUGAGGAUCACCCAUGUUCCUC = 312
AAUAACAGAGGAUAUACUAUUUUAUGUGUUUAUUGUUUUGAACAUGAGGAUCACCCAUGUAGAAGGCUGAUUGA = 56.3
GGUGCGUUUGUGAGGAUAUGCUGGUCCUUGGAUCAGCAGAAGGCACAUGAGGAUCACCCAUGUGGUGUCGGUCC = 37.6
UGUAAUGCUAUUGCAGAGGUUUAGAAGGAUAUACAUCGACAUGACCGUACAUGAGGAUCACCCAUGUAGAAGGUCUAACUUCUU = 4.91
CCAGGCAGUGUGAGGAUAUGCUGGUGCUUGCAUCAGCAGAAGGCACAUGAGGAUCACCCAUGUGAAGAGCUUGG = 131
GCAGCUAAUGCAGGAUAUCAGCACGUGUAGUGCUGAGAAGGGCACAUGAGGAUCACCCAUGUGAUCAAUCAAUGUUAAUGCUGC = 38.3
GGUGCGUGUAAAGGAUAUAUGUACUGAGAGGACAUAGAAGGUUACAUGAGGAUCACCCAUGUAGGAAGCGAAAGUUAUCACGUG = 25.3
GAUCAACAUGAGGAUCACCCAUGUGAGGAUAUGAUACUAUGUACUUCGGUACAUAGUAUCAGAAGGCAUAUAAA = 35.2
GUAUCACGAGGAUAUACAUGAGGAUCACCCAUGUAGAAGCCAUGUGGUGCUCAAGUAUGUAGAAGGCGUGCUCC = 33.3
UUUAUGUCAGGAUAUUCGGAUAGGAAAACGAAAACCUAUCCGAAGAAGGGACAUGAGGAUCACCCAUGUAAAAA = 151
UUAAAUCAUGUAGGAUAUGCAUGGCGAAGCUACGCAGAAGGACAUGAGGAUCACCCAUGUGCUAGCUACCGGAGACGGUGGCAA = 195
AAAAAUAGAGGAUAUACAUGAAAAAAAAAAAAAAAAAAAAAACAUGAGGAUCACCCAUGUAGAAGGCUAAAAAA = 30.3

---

- System: MS2 coat protein
- runDescription: apparent Kd, MS2 coat protein; higher = weaker binding; RNA-MaP array; theophylline 2 mM where present
- measurementSetup: designed as: OFF switch for theophylline; no ligand
apparent Kd by entry:
metricName: apparent Kd (nM)

ACAUGAGGAUCACCCAUGUGCCGUCUUGAUACCAGACCCGAAGUAGUCCCUUGGCAGCAACUACGUGACGGUCGCCCAUGUGUAG = 14.2
AAUGGCGUUGGUGAGGCGGUUAAUGGCGAUACCAGCGUGGAAACACGCCCUUGGCAGCGCCAAAACAUGAGGAUCACCCAUGUUA = 14.7
CUCGGGUUAUCAGAUACCAGACUAAAAUUUACAUGAGGAUCACCCAUGUAAUGGGUGAUAGUCCCUUGGCAGCUGUUAUGUUUAA = 62.3
UGGUCACUAGGAGAUACCAGCCGACAUGAGGAUCACCCAUGUAACCGGCGUCCUCCCUUAGGCCCUUGGCAGCUCGUAGUUGCUC = 12.2
GGUCUCUGGAGCGAUACCAGCUUGAGUGUACUGGCCAGGUACAUGAGGAUCACCCAUGUAAGCCCUUGGCAGCGCUGCAGAGACC = 10.1
AUUCCAUAGGUGCAGUUGUUAAAUGGCGAUACCAGCGUGGAAACACGCCCUUGGCAGCGCCAAAACAUGAGGAUCACCCAUGUUA = 95.8
UAUAUAUUGAUGGAUACCAGCAGAGAAAACGUUUAUCCUAACAUGAGGAUCACCCAUGUAUGCCCUUGGCAGCUGUUGAUAUAUA = 22.2

---

- Tested on: MS2 coat protein
- runDescription: apparent Kd, MS2 coat protein; higher = weaker binding; RNA-MaP array; FMN 200 µM where present
- measurementSetup: designed as: ON switch for flavin mononucleotide; no ligand
apparent Kd by entry:
metricName: apparent Kd (nM)

AGCUAGUACCGAGGAUAUACAUACAUGAGGAUCACCCAUGUAUACAUGAAUUUAUGAGACUACAUGUAGAAGGCGGUACUAGCA = 58.9
AAACGCCAACAUGAGGAUCACCCAUGUUCUAGUUUAGGGUCGCAGGAUAUGACUUCGAAGCUUAGUCAGAAGGGUGAGUCCACA = 13.7
UAAACAUGAGGAUCACCCAUGUAAAGAUCGGUAGUAGAGAGUGAGGAUAUACUAAAUUUAAUGGAGUAGAAGGCACUGGGUUCU = 44.8
GUAGCUAUCGGAGGAUAUUCAUGAUACAUGAGGAUCACCCAUGUUAAAUUGGGAGAAGGCCGAUAGCUACAAGAGCGAAAGCUC = 14.8

---

- Test system: MS2 coat protein
- runDescription: apparent Kd, MS2 coat protein; higher = weaker binding; RNA-MaP array; tryptophan 2.4 mM where present
- measurementSetup: ligand present: tryptophan; designed as: OFF switch for tryptophan
metricName: apparent Kd

AGCAACAAGUCGGCCGCCACUCUUUUUACAUGAGGAUCACCCAUGUUUAUAUCAUGGUCUUAAUAGAGGACCGGGACAGUUGCAU = 0.0546 µM
AAUGUAUUCCACAUGAGGAUCACCCAUGUGCGAGGACCGGUACGGCCGCCACUCGGUGUUGGGAUCAGUUCUGAAUACAUUAAUG = 0.0475 µM
UGUCGUAGACAUGAGGAUCACCCAUGUCCACGAGGACCGGUACGGCCGCCACUCGGGAUAUAAACCGUUACGGGUGGGUGGUGUU = 0.0373 µM
CUAUAAGUACCGGUCCUCAGAUCCUCAUGACGAGGACCGGUACGGCCGCCACUCGAAACAUGAGGAUCACCCAUGUAAUAACAUU = 0.0202 µM

---

- Test system: MS2 coat protein
- runDescription: apparent Kd, MS2 coat protein; higher = weaker binding; RNA-MaP array
- measurementSetup: designed as: ON switch for tryptophan; no ligand
param class (str): category from apparent Kd; see ranges low bracket = under 30 nM, middle bracket = from 30 nM up to 80 nM, high bracket = 80 nM and over

CCCAACAUGAGGAUCACCCAUGUUCCGGGUCGAGGACCGGUACGGCCGCCACUCGGUAUGAUGGGUGUGCAGCGUAUCUGCACCA = middle bracket
CAGUCUCUAGCGGCCGCCACUGUUCUGCUGGUGCUGCUGAACGAACAUGAGGAUCACCCAUGUCUCAGGACCGGGCUUCAGACUC = low bracket
GCAUCAUGAACGGCCGCCACUAAGGAAUGAGCGGCUCUUGCGAUACAUGAGGAUCACCCAUGUCUUAGGACCGGGUUCAUUGUCA = high bracket
ACGAAACAAGCGGCCGCCACUUCGUGGUGCUAAGGCUUGAUACUACAUGAGGAUCACCCAUGUCGAAGGACCGGGCUUGCGACUG = middle bracket
UACGUGGAUGCGGCCGCCACUGCUCUGAGCGAGUUGCUCUAUGGACAUGAGGAUCACCCAUGUCACAGGACCGGGCACGCUUUAA = low bracket
CUAAGAGUUACGGCCGCCACUAGUUGGGAUCCGCCCGUAAAAUCACAUGAGGAUCACCCAUGUCCUAGGACCGGGUAAUCGCAUU = high bracket
CCUCCUUGUACGGCCGCCACUGCAUCUCUGGAUACUCCGAUAAUACAUGAGGAUCACCCAUGUUACAGGACCGGGUAUAUAUUAC = low bracket
CGGGACAUGAGGAUCACCCAUGUACGAUCCCGAGGACCGGUACGGCCGCCACUCGCUAGCGUUGAGUCGCGACUUUCAUAACUAA = middle bracket

---

- Test system: MS2 coat protein
- runDescription: apparent Kd, MS2 coat protein; higher = weaker binding; RNA-MaP array
- measurementSetup: designed as: OFF switch for flavin mononucleotide; no ligand
Hi, to clarify the labels: Condition met covers apparent Kd from 0.02 µM upward, Condition not met covers anything below 0.02 µM.

CUAGAACAUGAGGAUCACCCAUGUCAGGAUAUUCUUGGAUGCAUCCAAGCGAAAACAAGAAGAAGGGACGUAUA = Condition not met
ACCUCGUAAGGAUAUAGAUGCCCGUACACAACAACAGAACUCUAGAAGGUACAUGAGGAUCACCCAUGUUGAUG = Condition met
GCAGGCGAAGGAUAUACAUGAGGAUCACCCAUGUGUCAAACAAUAAUACCACUCAACUGUAGAAGGUCGGGCGA = Condition not met
CUUCAACAUGAGGAUCACCCAUGUAAGGAUAUCUGCCUCACAGCACCAAAGUGCGGGAAGAGAAGGUACGUAGU = Condition not met
GAUCUAUCAGGAUAUAAGGCCUUGAACAUGAGGAUCACCCAUGUCCUCUUGGUUGCCGCGUUAGAAGGGAUGUGUU = Condition met
GACCCACAUGAGGAUCACCCAUGUCAGGAUAUCCGAUCGUCAAAGACCCAAAUAAUUAGGAGAAGGGACAUUAA = Condition not met
UAAGAUUCUGUAGGAUAUCAAAUACAUGAGGAUCACCCAUGUAACCUGAUUUCUGAUCCUCAGUGUGAGAAGGACAAUUAAGCC = Condition met
